Tested on: Staphylococcus aureus
Measurement protocol: Mueller-Hinton agar dilution method (MIC)
Format: cell-based
Test settings: beta-lactamase positive, strain SSC 79-28, Table II, read-out: Minimal Inhibitory Concentration
Readout label: MIC (µg/mL)

Below, each entry is followed by its recorded MIC result.
Compound	System name	Observed result
CO/N=C(\C(=O)N[C@@H]1C(=O)N2C(C(=O)O)=C(CSc3cnns3)CS[C@H]12)c1csc(N)n1 [Compound Ia]	Staphylococcus aureus	0.25
CCN1CCN(C(=O)N[C@@H](C(=O)N[C@@H]2C(=O)N3C(C(=O)O)=C(CSc4nnnn4C)CS[C@H]23)c2ccc(O)cc2)C(=O)C1=O [Compound VII, Cefaperazone]	Staphylococcus aureus	2
CO/N=C(\C(=O)N[C@@H]1C(=O)N2C(C(=O)O)=C(CSc3nnnn3C)CS[C@H]12)c1csc(N)n1 [Compound III, Cefmenoxime]	Staphylococcus aureus	2

(A) CO[C@@]1(NC(=O)Cc2cccs2)C(=O)N2C(C(=O)O)=C(COC(N)=O)CS[C@@H]21 [Compound VI, Cefoxitin]
(B) CO[C@@]1(NC(=O)C(C(=O)O)c2ccc(O)cc2)C(=O)N2C(C(=O)O)=C(CSc3nnnn3C)CO[C@@H]21 (stereo partly drawn) [Compound V, Moxalactam]
(C) CO/N=C(\C(=O)N[C@@H]1C(=O)N2C(C(=O)O)=CCS[C@H]12)c1csc(N)n1 [Compound IV, Ceftizoxime]
Task: # rank_down: sort by MIC, max first Answer format: list of labels, ordered as asked.
Result: B, A, C
